# testSystem: S1P1 (Homo sapiens (Human))
# Sequence (P21453 whole entry, species assumed): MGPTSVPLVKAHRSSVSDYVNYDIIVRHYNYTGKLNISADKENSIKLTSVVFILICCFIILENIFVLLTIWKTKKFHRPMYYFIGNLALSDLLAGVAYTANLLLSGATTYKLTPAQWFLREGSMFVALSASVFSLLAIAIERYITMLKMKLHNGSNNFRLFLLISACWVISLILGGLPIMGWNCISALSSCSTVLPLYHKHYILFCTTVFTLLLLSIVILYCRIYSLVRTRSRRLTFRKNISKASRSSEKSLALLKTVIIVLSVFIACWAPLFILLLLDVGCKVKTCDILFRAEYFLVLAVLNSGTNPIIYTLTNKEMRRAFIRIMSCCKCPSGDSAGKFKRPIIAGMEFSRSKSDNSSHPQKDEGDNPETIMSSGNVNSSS
# testDetails: 35S-GTPγS binding assay, S1P1 membranes
# appliedConditions: membranes from CHO cells expressing S1P1; read-out: S1P1 GTPyS EC50
quantityMeasured: pEC50
Give only the number. pEC50 is defined as minus log10 of concentration in molar units.

> print(dat)
                                    compound  quantitymeasured  readoutnumber
 1  Cc1cc(S(N)(=O)=O)ccc1NC(=O)c1cc(OC2CCCCC2)ncn1 [Example 1-65]             pEC50           4.88
 2  CCCN(CC1CC1)c1cc(C(=O)Nc2ccc(S(=O)(=O)NC)cc2C)ncn1 [Example 1-109]             pEC50           7.20
 3  O=C(Nc1ccc(Cn2cncn2)cc1)c1cc(N(CC2CC2)C2CCCCC2)ncn1 [Example 1-137]             pEC50           6.46
 4  CCCN(CC1CC1)c1cc(C(=O)Nc2ccc(CN3CCC[C@@H]3COC)cc2C)ncn1 [Example 1-139]             pEC50           5.61
 5  Cc1cc2[nH]ncc2cc1NC(=O)c1cc(N(CC2CC2)C2CCCCC2)ncn1 [Example 1-47]             pEC50           8.22
 6  CCOCN(CCOC)c1cc(C(=O)Nc2ccc(S(N)(=O)=O)cc2C)ncn1 [Example 1-59]             pEC50           6.25
 7  CCCN(CC1CC1)c1cc(C(=O)Nc2ccc(CN3CCOCC3)cc2C)ncn1 [Example 1-93]             pEC50           5.83
 8  CCCN(CC1CC1)c1cc(C(=O)Nc2ccc(N3CCOCC3)c(F)c2)ncn1 [Example 1-151]             pEC50           6.22
 9  O=C(Nc1ccc(O)cc1)c1cc(OC2CCCCC2)ncn1 [Example 1-26]             pEC50           6.62
10  O=C(Nc1cccc2[nH]ncc12)c1cc(N(CC2CC2)C2CCCCC2)ncn1 [Example 1-127]             pEC50           7.32

Just so you know, measured pEC50 for Cc1cc(O)ccc1NC(=O)c1cc(N(C)C2CCCCC2)ncn1 [Example 1-21] came out at 6.18

Just so you know, measured pEC50 for CCC(C)Oc1cc(C(=O)Nc2ccc(O)cc2C)ncn1 (centres unmarked) [Example 1-36] came out at 5.53

Record O=C(Nc1ccc(O)cc1C(F)(F)F)c1cc(NC2CCCCC2)ncn1 [Example 1-15] . Reported pEC50: 6.42

compound CCN(c1cc(C(=O)Nc2ccc(O)cc2C)ncn1)C1CCCCC1 [Example 1-25] , pEC50 observed: 6.40

Where do the numbers come from? From patent US9150519B2.
